Recorded values, source ChEMBL document CHEMBL3525996.

assay: AUC in Sprague-Dawley rat at 5 mg/kg, iv; format: ADME, organism-based; set-up: dose 5 mg/kg, route intravenous; conditions: plasma
Value type: AUC (ng·h/mL)

1. CCNC(=O)OC1CCN(c2nncc3cc(OC)c(OC)cc23)CC1
2. [2H]c1nnc(N2CCC(OC(=O)NCC)CC2)c2cc(OC)c(OC)cc12
# argmax over AUC for candidates 1 and 2 Mark your answer with the label of the selected entry.
2
(2: 1270 ng·h/mL, 1: 509 ng·h/mL)

* * *

experiment: AUC in Sprague-Dawley rat at 5 mg/kg, po; format: ADME, organism-based; set-up: dose 5 mg/kg, route oral; conditions: plasma
Value type: AUC (ng·h/mL)

a. [2H]c1nnc(N2CCC(OC(=O)NCC)CC2)c2cc(OC)c(OC)cc12
b. CCNC(=O)OC1CCN(c2nncc3cc(OC)c(OC)cc23)CC1
Could you check which of a and b has a smaller value for AUC? Mark your answer with the label of the selected entry.
b
(b: 1630 ng·h/mL, a: 3720 ng·h/mL)
